Value source: ChEMBL document CHEMBL1201862

tested on: TK-10; assay: NCI tumour cell line growth inhibition, 48 h
Activity calls are given as the source filed them. Cut-off read from the data, not from the text of the source: active = GI50 up to about 1.1 µM and inactive = higher.
Would you mind telling me the reported GI50 of each entry?

Lab note: need GI50 with TK-10 for entry O=C1C2Cc3c(n(C(=O)c4ccccc4)c4ccccc34)CC2C(=O)N1c1ccc(Nc2ccc(N3C(=O)C4Cc5c(n(C(=O)c6ccccc6)c6ccccc56)CC4C3=O)cc2)cc1 (stereo not given) , please look it up.
> 100 µM (inactive)

What value of GI50 on TK-10 does "C=C(C)c1nc(C#N)c(N)o1" have?
> 100 µM (inactive)

Could you tell me GI50 for each of these molecules? They are listed below.
1. COC1CCCCN1C(=O)c1ccccc1 (stereo not given)
2. Cc1cc(C)nc(NS(=O)(=O)c2ccc(Nc3c4ccccc4nc4c(C(=O)Nc5ccc(S(N)(=O)=O)cc5)cccc34)cc2)n1
3. CC(C)(C)c1ccc(OCCOCCOc2ccc(C(C)(C)C)cc2S(=O)(=O)Nc2ccc([N+](=O)[O-])cc2)c(S(=O)(=O)Nc2ccc([N+](=O)[O-])cc2)c1

1: > 25.3 µM (inactive); 2: > 10 µM (inactive); 3: 5.64 µM (inactive)

Each of the following entries comes with a recorded value; kindly state GI50 for each.
1. Cc1ccc(C(=O)N(Cc2ccccc2)Cc2ccccc2)cc1/N=N/N(C)C
2. O=C(Nc1nc2ncn(CCNCc3ccccc3)c2c(=O)[nH]1)c1ccccc1
3. C=CCN1CN(c2ccccc2)C2(CCN(CCCC3(c4ccc(F)cc4)OCCO3)CC2)C1=O
4. CC(=O)OCC1=C(COC(C)=O)C(=O)c2c(O)ccc(O)c2C1=O
5. N#CCCC1C(C#N)C2CC1C1C3C=CC(C3)C21 (stereo not given)

["33 µM (inactive)", "> 100 µM (inactive)", "16.9 µM (inactive)", "16.3 µM (inactive)", "> 100 µM (inactive)"]
